- target.entity: T1, human-CD40 monomer (human, UniProt P25942 21-193, limits assumed)
- T1 construct: also called hCD40-monomer; human-CD40-monomer protein
- protocol.notes: SPR 2 pt screen, Ab on protein A
List of koff values.
Response body: numeric value in s⁻¹, unit text excluded.

1) humanized Y1238 hz23 (hz-HC5 / hz-LC3), IgG1.3f (antibody, V domains shown, IgG1.3f heavy constant, common CL; expression supernatant; also called Sup 23) VH: QVQLVQSGAEVKKPGASVKVSCKASGYAFTNYLIEWVRQRPGQGLEWMGVINPGSGGTNYNEKFKGRVTMTADKSISTAYMELSRLRSDDTAVYYCARSQLGRRFDYWGQGTLVTVSS VL: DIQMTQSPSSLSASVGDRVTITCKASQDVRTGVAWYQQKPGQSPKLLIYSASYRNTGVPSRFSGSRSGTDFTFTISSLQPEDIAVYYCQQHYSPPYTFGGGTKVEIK ... 0.00031

Task: Tell me the measured koff of humanized Y1238 hz41 (hz-HC9 / hz-LC1), IgG1.3f (antibody, V domains shown, IgG1.3f heavy constant, common CL; expression supernatant; also called Sup 41) VH: QVQLVQSGAEVVKPGASVKVSCKASGYAFTNYLIEWVRQRPGQGLEWMGVINPGSGGTNYNEKFKGRVTLTADKSSSTAYMQLSRLRSDDTAVYFCARSQLGRRFDYWGQGTTVTVSS VL: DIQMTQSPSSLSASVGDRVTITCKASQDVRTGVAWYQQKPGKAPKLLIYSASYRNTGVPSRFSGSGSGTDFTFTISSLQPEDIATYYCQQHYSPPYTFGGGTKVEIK , please.
Output: 0.00017
